Assay: Stability of analytes in rat plasma QC samples (autosampler, room temperature, freeze/thaw, -80°C)
Format: in vitro ADME
Settings: n = 6, medium level (120 ng/mL isovanillin, periplocin; 24 ng/mL others)
Measured Autosampler for 24 hours stability, Accuracy by item
propertyMeasured: Autosampler for 24 hours stability, Accuracy (%)

molecule	units	obsValue
C[C@]12CC[C@H](O)C[C@@]1(O)CC[C@@H]1[C@@H]2CC[C@]2(C)[C@@H](C3=CC(=O)OC3)CC[C@]12O	%	110
CO[C@H]1C[C@H](O[C@H]2CC[C@]3(C)[C@H]4CC[C@]5(C)[C@@H](C6=CC(=O)OC6)CC[C@]5(O)[C@@H]4CC[C@]3(O)C2)O[C@H](C)[C@H]1O	%	108
COc1ccc(C=O)cc1O	%	112
COC1CC(OC2CCC3(C)C4CCC5(C)C(C6=CC(=O)OC6)CCC5(O)C4CCC3(O)C2)OC(C)C1OC1OC(CO)C(O)C(O)C1O (stereo not shown)	%	109

* * *

Test: Pharmacokinetic study in rats after oral administration of cortex periplocae extract (plasma LC-MS/MS)
Type: in vivo, rat
Details: rat; male Sprague-Dawley rats, oral cortex periplocae extract 18.9 g/kg, plasma, n = 6, mean ± SD
propertyMeasured: AUC(0-inf) (ng·h/mL)

smi	obsValue
COc1cc2ccc(=O)oc2cc1O	206

* * *

Assay: Stability of stock and working solutions stored 2 weeks at 4°C
Assay type: physicochemical
Settings: 2 weeks at 4°C; low level (7.2 ng/mL isovanillin, periplocin; 1.44 ng/mL scopoletin, periplogenin, periplocymarin)
# Working solution stability, Accuracy listing for each entry below

compound	Working solution stability, Accuracy / %
C[C@]12CC[C@H](O)C[C@@]1(O)CC[C@@H]1[C@@H]2CC[C@]2(C)[C@@H](C3=CC(=O)OC3)CC[C@]12O	111
COc1ccc(C=O)cc1O	104
COC1CC(OC2CCC3(C)C4CCC5(C)C(C6=CC(=O)OC6)CCC5(O)C4CCC3(O)C2)OC(C)C1OC1OC(CO)C(O)C(O)C1O (stereo not shown)	103
CO[C@H]1C[C@H](O[C@H]2CC[C@]3(C)[C@H]4CC[C@]5(C)[C@@H](C6=CC(=O)OC6)CC[C@]5(O)[C@@H]4CC[C@]3(O)C2)O[C@H](C)[C@H]1O	110

* * *

Assay: Pharmacokinetic study in rats after oral administration of cortex periplocae extract (plasma LC-MS/MS)
Type: in vivo, rat
Details: rat; male Sprague-Dawley rats, oral cortex periplocae extract 18.9 g/kg, plasma, n = 6, mean ± SD
Procedure: The pharmacokinetic study was conducted in accordance with the Guidelines for the Care and Use of Laboratory Animals and approved by the Animal Ethics Committee of Tianjin University of Traditional Chinese Medicine. […] Appropriate amount of cortex periplocae extract was suspended in 0.5% carboxymethyl cellulose sodium salt aqueous solution (CMC-Na) and the volume of oral administration was 1 mL/100g. […] The rats were anesthetized with ethyl ether before each withdrawal. […]

smi	Tmax
COc1cc2ccc(=O)oc2cc1O	6 min

* * *

Experiment: Pharmacokinetic study in rats after oral administration of cortex periplocae extract (plasma LC-MS/MS)
Type: in vivo, rat
Details: rat, in vivo; male Sprague-Dawley rats, oral cortex periplocae extract 18.9 g/kg, plasma, n = 6, mean ± SD; read-out: MRT(0-tn)
Description: The pharmacokinetic study was conducted in accordance with the Guidelines for the Care and Use of Laboratory Animals and approved by the Animal Ethics Committee of Tianjin University of Traditional Chinese Medicine. […] Appropriate amount of cortex periplocae extract was suspended in 0.5% carboxymethyl cellulose sodium salt aqueous solution (CMC-Na) and the volume of oral administration was 1 mL/100g. […] The rats were anesthetized with ethyl ether before each withdrawal. […]
MRT values by entry
propertyMeasured: MRT (h)

compound	obsValue
CO[C@H]1C[C@H](O[C@H]2CC[C@]3(C)[C@H]4CC[C@]5(C)[C@@H](C6=CC(=O)OC6)CC[C@]5(O)[C@@H]4CC[C@]3(O)C2)O[C@H](C)[C@H]1O	17.1
COC1CC(OC2CCC3(C)C4CCC5(C)C(C6=CC(=O)OC6)CCC5(O)C4CCC3(O)C2)OC(C)C1OC1OC(CO)C(O)C(O)C1O (centres unmarked)	1.21

* * *

Experiment: Stability of stock and working solutions stored 2 weeks at 4°C
Format: physicochemical
Conditions: 2 weeks at 4°C; high level (1200 ng/mL isovanillin, periplocin; 240 ng/mL scopoletin, periplogenin, periplocymarin)
Working solution stability, Accuracy overview

compound	Working solution stability, Accuracy, %
CO[C@H]1C[C@H](O[C@H]2CC[C@]3(C)[C@H]4CC[C@]5(C)[C@@H](C6=CC(=O)OC6)CC[C@]5(O)[C@@H]4CC[C@]3(O)C2)O[C@H](C)[C@H]1O	84.2
C[C@]12CC[C@H](O)C[C@@]1(O)CC[C@@H]1[C@@H]2CC[C@]2(C)[C@@H](C3=CC(=O)OC3)CC[C@]12O	81.5
COC1CC(OC2CCC3(C)C4CCC5(C)C(C6=CC(=O)OC6)CCC5(O)C4CCC3(O)C2)OC(C)C1OC1OC(CO)C(O)C(O)C1O (stereo not shown)	94.4
COc1ccc(C=O)cc1O	85.0

* * *

Test: Pharmacokinetic study in rats after oral administration of cortex periplocae extract (plasma LC-MS/MS)
Type: in vivo, rat
Conditions: rat; male Sprague-Dawley rats, oral cortex periplocae extract 18.9 g/kg, plasma, n = 6, mean ± SD; read-out: MRT(0-tn)

compound	units	MRT
COc1cc2ccc(=O)oc2cc1O [scopoletin]	h	11.8

* * *

Test: Stability of analytes in rat plasma QC samples (autosampler, room temperature, freeze/thaw, -80°C)
Type: in vitro ADME
Settings: three freeze (-80°C)/thaw cycles, n = 6, high level (1200 ng/mL isovanillin, periplocin; 240 ng/mL others)

molecule	Freeze thaw cycles stability, Accuracy [%]
CO[C@H]1C[C@H](O[C@H]2CC[C@]3(C)[C@H]4CC[C@]5(C)[C@@H](C6=CC(=O)OC6)CC[C@]5(O)[C@@H]4CC[C@]3(O)C2)O[C@H](C)[C@H]1O	103
C[C@]12CC[C@H](O)C[C@@]1(O)CC[C@@H]1[C@@H]2CC[C@]2(C)[C@@H](C3=CC(=O)OC3)CC[C@]12O	92.8
COc1ccc(C=O)cc1O	107
COC1CC(OC2CCC3(C)C4CCC5(C)C(C6=CC(=O)OC6)CCC5(O)C4CCC3(O)C2)OC(C)C1OC1OC(CO)C(O)C(O)C1O (stereo not shown)	113

* * *

Assay: Pharmacokinetic study in rats after oral administration of cortex periplocae extract (plasma LC-MS/MS)
Assay type: in vivo, rat
Conditions: rat, in vivo; male Sprague-Dawley rats, oral cortex periplocae extract 18.9 g/kg, plasma, n = 6, mean ± SD
Reported AUC(0-inf) values are given for each entry in this list.
propertyMeasured: AUC(0-inf) (ng·h/mL)

molecule	obsValue
COC1CC(OC2CCC3(C)C4CCC5(C)C(C6=CC(=O)OC6)CCC5(O)C4CCC3(O)C2)OC(C)C1OC1OC(CO)C(O)C(O)C1O (centres unmarked) [periplocin]	105
CO[C@H]1C[C@H](O[C@H]2CC[C@]3(C)[C@H]4CC[C@]5(C)[C@@H](C6=CC(=O)OC6)CC[C@]5(O)[C@@H]4CC[C@]3(O)C2)O[C@H](C)[C@H]1O [periplocymarin]	2260

* * *

Test: Pharmacokinetic study in rats after oral administration of cortex periplocae extract (plasma LC-MS/MS)
Format: in vivo, rat
Conditions: rat, in vivo; male Sprague-Dawley rats, oral cortex periplocae extract 18.9 g/kg, plasma, n = 6, mean ± SD
Here the recorded Tmax is given for each entry.

compound	Tmax (h)
CO[C@H]1C[C@H](O[C@H]2CC[C@]3(C)[C@H]4CC[C@]5(C)[C@@H](C6=CC(=O)OC6)CC[C@]5(O)[C@@H]4CC[C@]3(O)C2)O[C@H](C)[C@H]1O	5.49
COC1CC(OC2CCC3(C)C4CCC5(C)C(C6=CC(=O)OC6)CCC5(O)C4CCC3(O)C2)OC(C)C1OC1OC(CO)C(O)C(O)C1O (centres unmarked)	0.31

* * *

Test: Stability of analytes in rat plasma QC samples (autosampler, room temperature, freeze/thaw, -80°C)
Assay type: in vitro ADME
Conditions: three freeze (-80°C)/thaw cycles, n = 6, low level (7.2 ng/mL isovanillin, periplocin; 1.44 ng/mL others)

compound	units	Freeze thaw cycles stability, Accuracy
CO[C@H]1C[C@H](O[C@H]2CC[C@]3(C)[C@H]4CC[C@]5(C)[C@@H](C6=CC(=O)OC6)CC[C@]5(O)[C@@H]4CC[C@]3(O)C2)O[C@H](C)[C@H]1O [periplocymarin]	%	113
COc1ccc(C=O)cc1O [isovanillin]	%	101
COC1CC(OC2CCC3(C)C4CCC5(C)C(C6=CC(=O)OC6)CCC5(O)C4CCC3(O)C2)OC(C)C1OC1OC(CO)C(O)C(O)C1O (stereo not shown) [periplocin]	%	93.7
C[C@]12CC[C@H](O)C[C@@]1(O)CC[C@@H]1[C@@H]2CC[C@]2(C)[C@@H](C3=CC(=O)OC3)CC[C@]12O [periplogenin]	%	116
